FYI, the data here is from ChEMBL document CHEMBL5291721.

A collection of molecules and their measured AC50
Biological target: UniProt P23975
Sequence (P23975 whole entry): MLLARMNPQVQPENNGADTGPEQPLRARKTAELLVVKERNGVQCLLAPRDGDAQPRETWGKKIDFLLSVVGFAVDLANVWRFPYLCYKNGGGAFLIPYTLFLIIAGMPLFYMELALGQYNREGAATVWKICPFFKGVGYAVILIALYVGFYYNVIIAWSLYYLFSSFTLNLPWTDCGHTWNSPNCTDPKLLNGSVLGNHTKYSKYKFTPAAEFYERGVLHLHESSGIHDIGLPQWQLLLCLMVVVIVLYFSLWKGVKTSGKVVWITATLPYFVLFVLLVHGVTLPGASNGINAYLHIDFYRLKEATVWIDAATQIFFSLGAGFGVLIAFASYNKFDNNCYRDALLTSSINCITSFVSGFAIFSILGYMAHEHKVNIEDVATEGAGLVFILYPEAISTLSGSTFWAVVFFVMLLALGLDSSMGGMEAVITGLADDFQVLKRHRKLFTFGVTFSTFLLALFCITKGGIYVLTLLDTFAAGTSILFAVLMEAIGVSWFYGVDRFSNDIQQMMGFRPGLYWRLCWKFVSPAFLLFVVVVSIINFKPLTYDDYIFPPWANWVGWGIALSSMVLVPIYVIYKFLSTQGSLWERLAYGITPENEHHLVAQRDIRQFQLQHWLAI
quantity: AC50

- CCCCCCCC(=O)CC[C@@H]1[C@@H](C/C=C\CCCC(=O)O)[C@@H](O)C[C@H]1O [UNOPROSTONE]: > 30 µM
- NCC1(CC(=O)O)CCCCC1 [GABAPENTIN]: > 30 µM
- CC1=C(C(=O)O)N2C(=O)[C@@H](NC(=O)[C@H](N)C3=CCC=CC3)[C@H]2SC1 [CEPHRADINE]: > 30 µM
- CC(=O)[C@@]1(O)CC[C@H]2[C@@H]3C[C@H](C)C4=CC(=O)C=C[C@]4(C)[C@@]3(F)[C@@H](O)C[C@@]21C [FLUOROMETHOLONE]: > 10 µM
- CC(=O)SCC(Cc1ccccc1)C(=O)NCC(=O)OCc1ccccc1 (centres undefined) [RACECADOTRIL]: > 10 µM
- CC(C(=O)O)c1ccc(C(=O)c2ccccc2)s1 (centres undefined) [TIAPROFENIC ACID]: > 10 µM
- OCC(O)COc1ccc(Cl)cc1 (centres undefined): > 10 µM
- CS(=O)(=O)Nc1ccc([N+](=O)[O-])cc1Oc1ccccc1 [NIMESULIDE]: 19 µM
- N=C(N)NC(=O)c1nc(Cl)c(N)nc1N [AMILORIDE]: > 30 µM
